Quick list: % Removal (Percent Particle Removal) per entry.
assay: Cleaning performance: % particle removal from heavily soiled CMOS sensors; conditions: Novec 71IPA, total surfactant 0.20 wt %
VALUE_TYPE: % Removal (Percent Particle Removal)

| MOLECULE | RESULT |
| --- | --- |
| O=S(=O)(NCCOCCO)C(F)(F)C(F)(F)C(F)(F)C(F)(F)F [H-FBS(EE) (III), C4F9SO2N(H)CH2CH2OCH2CH2OH] | 50-80% |
| O=S(=O)(N(CCO)CCO)C(F)(F)C(F)(F)C(F)(F)C(F)(F)F [FBSEE (IX), C4F9SO2N(CH2CH2OH)2] | 90-100% |
| O=S(=O)(N(CCO)CCOCCO)C(F)(F)C(F)(F)C(F)(F)C(F)(F)F [FBSE(EE) (V), C4F9SO2N(CH2CH2OCH2CH2OH) (CH2CH2OH)] | 90-100% |
| O=S(=O)(N(CCOCCO)CCOCCO)C(F)(F)C(F)(F)C(F)(F)C(F)(F)F [FBS(EE)2 (IV), C4F9SO2N(CH2CH2OCH2CH2OH)2] | 50-80% |
| O=S(=O)(NCCO)C(F)(F)C(F)(F)C(F)(F)C(F)(F)F [H-FBSE (X), C4F9SO2NH(CH2CH2OH)] | 50-80% |
